Test: amyloid nucleation score (Sup35N fusion, yeast selection) (log enrichment); library NNK2; higher = more nucleation; inactive = no reads after selection;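 also: zero at mode of non-aggregating sequences after 7 days selection at 30°C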
Assay readout: amyloid nucleation score

> print(dat)
               substance             assay.readout  observed
 1  WSMFLLRMAPMRMLTTINFV  amyloid nucleation score    -0.504
 2  FCVIPIKGQRSLHIPVQLFG  amyloid nucleation score     -1.07
 3  SCRRWHLFLGWCIDVVESIY  amyloid nucleation score      1.56
 4         LKLFNGVRPKNGM  amyloid nucleation score      -1.6
 5               RNRAENV  amyloid nucleation score     -0.36
 6  FFQGSVSLCFQASHQWSFLI  amyloid nucleation score      3.06
 7                FIAGLS  amyloid nucleation score    -0.734
 8  ASQIDSLVRNRNCLNSTKIG  amyloid nucleation score     -0.23
 9  MTCRRCNNAMWSGLLRLKIY  amyloid nucleation score      2.97
10  ASLLSGFNFKSVRHGLRDLG  amyloid nucleation score     0.568
11            NSIGPTPGGN  amyloid nucleation score     0.123
12  LYLCGWVGRSMGFDARPCHF  amyloid nucleation score      3.38
13         LLHNIDVRTSRME  amyloid nucleation score    -0.846
14           SRVYRCGWLGS  amyloid nucleation score     0.274
15             IELLYIRYK  amyloid nucleation score     -2.09
16  YCINGLGIGTELCVFTTKWM  amyloid nucleation score    -0.479
17  FYRGLVDHRMNFITFNCGRQ  amyloid nucleation score       5.6
18  IWNWRQYLYVLGADRFSYMC  amyloid nucleation score      4.19

###

Test: amyloid nucleation score (Sup35N fusion, yeast selection) (log enrichment); library NNK2; higher = more nucleation; inactive = no reads after selection
# amyloid nucleation score >= -0.3 gives Condition met, anything below gives Condition not met

> print(dat)
               substance        label.value
 1    VLNEDVRGKANTVVSSMG      Condition met
 2                TRADDL      Condition met
 3  SVYRFFAKSKMKCWGLHNGG  Condition not met
 4  TPSKKDGECWNFYRTMWFTG  Condition not met
 5  LSVLTNDSGLFKFGFIRCVW  Condition not met
 6  HSVLEYFVTLCSNFLLWWVL      Condition met
 7     SVIIQLSYTRGYWLLQA  Condition not met
 8  KNDLRSSGWTAGSGISLEEG  Condition not met
 9  GFICPFVQLCVFRSRHRFEV      Condition met
10  LGNWCGYWYFHHISSYGLMR  Condition not met
11            GNVWILIYNV      Condition met
12  IVDSIFTFGTRVDGWLGDCA      Condition met
13  RFNVLRIGPLSHLQGWEHPT  Condition not met
14               LGDRCNS      Condition met

###

Assay: amyloid nucleation score (Sup35N fusion, yeast selection) (log enrichment); library NNK1; higher = more nucleation; inactive = no reads after selection
Each entry below carries its reported amyloid nucleation score.
Assay readout: amyloid nucleation score

> print(dat)
               substance  observed
 1  CMWPFTDYTIIKTSLYTWTN     -1.09
 2               SKIHYMF    -0.942
 3                YHVRLV     0.147
 4  LFFEVMHTFMLNMEFLLRFI     -1.12
 5  FLKGYHCVNDDSGNFFIVYI      2.02
 6  FVNIADDRRVYLILSVHGDL      6.58
 7  FVGFDCYNSVSCCFTMRVSE      4.02
 8            GARVTLYAVS    -0.475
 9  CICRRVSKTVLSLQANEAPC    -0.561
10        KSLFVLVWTLLLPT    -0.223
11            NMLFLSRGDP    -0.499
12            WKKPIQGSVW     0.295
13            RVGQSCCDFT    -0.047
14  RRAYIYWNRTCFFLVILLFQ     0.538
15  GVKTAYGNHAMWRDAVSRRG      0.15
16            LFIKVLLGFF      0.32
17  VYVFLADNGSDELLMLVLTG      0.12
18  LYITVIVHNWVLGWKRVLLE      1.64
19      LFFECVTLHLYLVKSS      -1.1
20  HAIGTQMVTLGLRSISFSWN      1.19
21                TLTRYC    -0.086
22  IVASSISAQVSLLYRALCIY      3.69
23  RRSYVSSEMNTSKRKSCPLS     0.659
24  SSTFCVAQYQSYWLCEVKWV     0.086
25  NFMIMKSCDRSSLCHFMSYC      7.44
26   VRLTSINSLCIVGDTQGST     0.945
27              GSERPNPV     0.958
28  YFKNTGEVRSIRLSGHHGWG     0.048
29  KGGSPQYNGVTSMWWDRKFD    -0.255
30  LLIEWRLDSGWCTTGSENRD    -0.347
31  KDHTWWALCFYIKIFELKVR      1.39
32  LGYVIYFVFWRRHSFSYSAC    -0.407
33  GAFEGVFHRVMSDGRGAFAR    -0.289
34  VFSSVGGETSYRCMGTASGT    -0.231
35  RTSLSLSKVAFNWMFQRYSS     0.181
36  SRAAFVSSKPYMSWGVTYVH    -0.792
37  VEFGSHVFYLKGRSDKAKYL    -0.283
38     QTRWACTTQCGCKCFFE      1.53
39  CQLNTASVSNNGGRVLGMYR     0.529
40  EDSLFRSVLILMSVMFIQVD      1.05
41             VDNSCFRGT    -0.391
42   ADSHYSDVGGYWMNSSLCK      1.31
43  TSRGGLFYSGVLICAGGIRM    -0.032
44  RLYTFVLPRFILLEKRHSTN     0.255
45  RVFLQTGWVCGVRHANNRLR    -0.006
46  TLLYPYMVPLRRKSLWGAVR      1.36
47  PTMLKNRGVLSQPHIIFSYR    -0.333
48      LEVYGQCDRVHCHSSR    -0.276
49  DDLPPRRNASFQWNKGFFRV    -0.448
50  QEDRGPLLHFRLNSYNVMTQ     0.471
51            NVTFHSRSGV    -0.316
52  LRHLVIGNKNALLVWFRSHI     0.817
53           NTRYYFENNMR    -0.599
54  YSVSWQLFGIDVCTFVTVRS     0.367
55         SLLPDPHYMTQVW    -0.559
56  GGYVLPYSLFFGVPSIAFVG     0.602
57  IKRKSAESNGCSLYLYDSLK    -0.189
58  IRLRPERDLGVAWLCIGCKR    -0.314
59  LHTCHSLLPLIEYDFISYGV    -0.208
60          RCCGLYVSLWIS     0.425
61      FLLREQQGLTEVMKEV     0.481
62  PGSCFVMCCDLDKRKGSADE    -0.559
63  PIKVMIFVCNGFRKWHLMQH     0.268
64  GNFHQPFFLMVVFQHARAPL      6.29
65  FPYRGLLFTRLIPAAVGKGA     0.171
66  SDVWGWWGRSRVTADYFADV     -1.17
67                GQRLLL      1.07
68  VWDRWDSGHVCYSNMAVWNV     0.536

###

Test: amyloid nucleation score (Sup35N fusion, yeast selection) (log enrichment); library NNK2; higher = more nucleation; inactive = no reads after selection
Each entry below carries its reported amyloid nucleation score.
Assay readout: amyloid nucleation score

> print(dat)
        sequence.content             assay.readout  observed
 1  GIRWQVATDSPRLSGYPLCT  amyloid nucleation score      3.46
 2  CHVFTSSSTRSLWTSDIIPS  amyloid nucleation score     0.218
 3   HVRVYHPGQMNCSRYNTMQ  amyloid nucleation score     0.217
 4  MSPYLWYGWLEAGLLGIRTL  amyloid nucleation score     0.871
 5  PFWVGNGKQGVFGKFDCYVI  amyloid nucleation score     -1.19
 6           ELHLFHATPRY  amyloid nucleation score      6.61
 7              HSAIDMWS  amyloid nucleation score    -0.903
 8  LHSYVFTKGSRTQCRWRKNP  amyloid nucleation score      0.07
 9  TACSQVVGVIHIIVGRGRSR  amyloid nucleation score      7.29
10  LYENRQFFCQGFGRWCMKLL  amyloid nucleation score      0.45
11    DYDEIMRLMLWSSLLLFR  amyloid nucleation score      0.47
12           TADLDIDGPVS  amyloid nucleation score      4.64
13              NMIYYGVL  amyloid nucleation score     -1.24
14  AAFRSTFDCTTVVLRSPSVS  amyloid nucleation score    -0.345
15  YMIYCFITVGCFISTLHYCG  amyloid nucleation score      1.68
16      SPCFWMLPVKKPPACR  amyloid nucleation score      5.08
